Measured values drawn from PubChem BioAssay for this set.

Experiment: LAP4-GFP expression modulators in yeast, confirmation, cell-based, cherry picks, flow cytometry, mother/daughter gates (AID 2271);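 note: ratio of sample to DMSO plate mean so 100% equals DMSO level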
Conditions: S. cerevisiae LAP4-GFP strain, 3 h, at 10 µM, active compounds read high, 100 means same as DMSO control
Measured GFP response relative to DMSO, listed per entry for reference.
Numeric answer only, unit % assumed.

[[record]]
molecule = "COc1ccc(Cl)cc1C(Nc1cccnc1)c1ccc2cccnc2c1O (stereo unspecified)"
metric = "GFP response relative to DMSO"
reported = 121

[[record]]
molecule = "O=C(O)CSC1CC(=O)N(c2cccc(Cl)c2)C1=O (stereo unspecified)"
metric = "GFP response relative to DMSO"
reported = 104

[[record]]
molecule = "Cc1cc(C)c(S(=O)(=O)ON2C(=O)c3ccccc3C2=O)cc1C"
metric = "GFP response relative to DMSO"
reported = 255


Q: Requested field: GFP response relative to DMSO. Item: O=C(Nc1ccccc1O)c1ccc(Cl)cc1
Ans: 98.7

Q: Requested field: GFP response relative to DMSO. Item: COc1ccc(COC(=O)c2n[nH]c3ccccc23)cc1F
Ans: 97.4

###

Assay: promoters of myeloid differentiation in arrested cells, primary screen, cell-based, GFP/MAC1 double positive, flow cytometry, validation set (AID 588685);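 note: compound exposure lasts four days before antibody staining and flow analysis; 0% = DMSO wells and 100% = 5 µM fulvestrant positive control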
Conditions: ER-HoxA9 marrow cells, normalized: vehicle 0, fulvestrant 100
Activity calls are given as the source filed them.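 The calls were made as follows: active = differentiation response of at least 50%, scaled between solvent and reference control, from cells with both markers; inactive = the rest.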
Result category, one only: class 1 (active), class 0 (inactive)

Field: example entries. Status: answers known.
[[record]]
structure = "NC(=O)N1c2ccccc2C=Cc2ccccc21"
categorylabel = "class 0"

[[record]]
structure = "CCOc1cc(C)cc2oc(=O)cc(-c3ccccc3)c12"
categorylabel = "class 0"

[[record]]
structure = "CC(=O)OCC(=O)[C@@]12OC(C)(C)O[C@@H]1C[C@H]1[C@@H]3C[C@H](F)C4=CC(=O)C=C[C@]4(C)[C@@]3(F)[C@@H](O)C[C@@]12C"
categorylabel = "class 0"

[[record]]
structure = "COc1ccc(CCN(C)CC(=O)Nc2cc(C)nc3ccccc23)cc1OC"
categorylabel = "class 0"


Here is another compound to look at.
Q: Which outcome was entered for the compound Cc1ccc(-n2ncc3c(Nc4cccc(C(=O)O)c4)ncnc32)cc1 in this test?
Ans: class 1

###

Measured inhibition, listed per entry for reference.
Molecular target: ATP-binding cassette sub-family B member 6 (Homo sapiens)
Assay: ABCB6 transporter inhibitors, pilot screen, K562-ABCB6 cells, flow cytometry, validation set (AID 588550);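 note: 0% = DMSO wells and 100% = benzethonium chloride 70 µM positive control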
Details: K562-ABCB6 porphyrin accumulation, 1 h, at 10 µM, active compounds read high
Numeric answer only, unit % assumed.

Known inhibition results, listed for orientation:
[[record]]
compound = "COc1ccc2[nH]cc(C(=O)CCl)c2c1"
assayedsystem = "ATP-binding cassette sub-family B member 6 (Homo sapiens)"
metric = "inhibition"
reported = 3

[[record]]
compound = "CC(COc1ccccc1)N(CCCl)Cc1ccccc1 (stereo unspecified)"
assayedsystem = "ATP-binding cassette sub-family B member 6 (Homo sapiens)"
metric = "inhibition"
reported = 10

[[record]]
compound = "Clc1ccc2c(c1)C(N1CCNCC1)=Nc1ccccc1O2"
assayedsystem = "ATP-binding cassette sub-family B member 6 (Homo sapiens)"
metric = "inhibition"
reported = 7


Q: Requested field: inhibition. Item: CN(C)CCN(Cc1cccs1)c1ccccn1
Ans: 8

Q: Requested field: inhibition. Item: COc1ccc(S(=O)(=O)N2CCN(C(=O)COc3ccc4c(C)cc(=O)oc4c3)CC2)cc1
Ans: -3

Q: Requested field: inhibition. Item: Cc1c(CCOC(=O)CC23CC4CC(CC(C)(C4)C2)C3)sc[n+]1Cc1ccc([N+](=O)[O-])cc1
Ans: 6
